Measured values drawn from BindingDB's records for doi:10.1111/cbdd.12575 for this set.

- Measured Target: Nitric oxide synthase, inducible (Mus musculus, UniProt P29477)
- Sequence (P29477 whole entry): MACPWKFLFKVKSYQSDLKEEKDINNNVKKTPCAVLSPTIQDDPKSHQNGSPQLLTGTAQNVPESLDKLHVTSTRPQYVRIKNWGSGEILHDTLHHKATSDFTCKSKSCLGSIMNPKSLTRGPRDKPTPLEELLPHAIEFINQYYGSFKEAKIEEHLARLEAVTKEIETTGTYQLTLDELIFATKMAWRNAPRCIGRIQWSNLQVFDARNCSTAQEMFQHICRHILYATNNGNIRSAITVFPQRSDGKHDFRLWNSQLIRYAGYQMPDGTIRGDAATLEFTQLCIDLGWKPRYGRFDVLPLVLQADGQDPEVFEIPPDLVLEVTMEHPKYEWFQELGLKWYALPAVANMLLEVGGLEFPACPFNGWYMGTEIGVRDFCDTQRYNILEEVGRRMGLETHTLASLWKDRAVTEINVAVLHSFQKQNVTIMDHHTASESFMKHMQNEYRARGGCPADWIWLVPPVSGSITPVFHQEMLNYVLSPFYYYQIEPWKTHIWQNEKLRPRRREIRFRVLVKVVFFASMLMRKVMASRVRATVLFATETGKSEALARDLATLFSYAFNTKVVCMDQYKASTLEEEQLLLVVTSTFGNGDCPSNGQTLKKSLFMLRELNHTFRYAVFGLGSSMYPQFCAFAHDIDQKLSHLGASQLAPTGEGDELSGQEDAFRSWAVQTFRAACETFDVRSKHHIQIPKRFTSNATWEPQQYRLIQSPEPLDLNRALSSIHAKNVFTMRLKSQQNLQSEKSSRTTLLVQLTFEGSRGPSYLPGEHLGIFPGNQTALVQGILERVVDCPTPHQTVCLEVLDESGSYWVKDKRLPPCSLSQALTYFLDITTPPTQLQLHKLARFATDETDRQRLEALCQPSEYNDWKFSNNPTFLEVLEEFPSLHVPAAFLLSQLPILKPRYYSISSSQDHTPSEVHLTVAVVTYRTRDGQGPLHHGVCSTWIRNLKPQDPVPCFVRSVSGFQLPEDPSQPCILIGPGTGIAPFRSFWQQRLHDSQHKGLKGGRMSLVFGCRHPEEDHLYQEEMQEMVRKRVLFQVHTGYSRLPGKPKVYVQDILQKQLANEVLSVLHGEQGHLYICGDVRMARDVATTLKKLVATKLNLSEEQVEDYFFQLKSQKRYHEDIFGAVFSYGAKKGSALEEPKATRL
- Experimental Details: iNOS Activity Assay
Lab note: cut-off is 30 µM. Strictly less in Ki is yes. Exactly 30 µM or more is no.

Input: Dear colleague, could you confirm whether Ki of N=C(NCCCC12C[NH][Re]([CH]=O)([CH]=O)([CH]=O)([NH]1)[O]C2=O)N[N+](=O)[O-] (stereo not given) falls below 30 µM? Thanks.
Output: no

Input: Dear colleague, could you confirm whether Ki of NCC(N)(CCCC(=O)NC(CCCNC(N)=N[N+](=O)[O-])C(=O)O)C(=O)O (stereo not given) falls below 30 µM? Thanks.
Output: yes

Input: Dear colleague, could you confirm whether Ki of N=C(NCCCC(NC(=O)CCCC12C[NH][Re]([CH]=O)([CH]=O)([CH]=O)([NH]1)[O]C2=O)C(=O)O)N[N+](=O)[O-] (stereo not given) falls below 30 µM? Thanks.
Output: no

Input: Dear colleague, could you confirm whether Ki of NCC(N)(CCCCCCC(=O)NC(CCCNC(N)=N[N+](=O)[O-])C(=O)O)C(=O)O (stereo not given) falls below 30 µM? Thanks.
Output: no
